- Test system: SGK2
- experimentalParameters: concentration: 1 μM, replicates: in singlicate; n = 1;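 further: KINOMEscan kinase panel screen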
propertyLabel: %Inh (%)

{"molecule": "COc1cc2ncnc(Nc3ccc(OCc4ccccc4Br)c(Cl)c3)c2cc1OC.Cl [GI261590]", "propertyLabel": "%Inh", "reported": 11}
{"molecule": "Fc1cccc(COc2ccc(Nc3ncnc4cc[nH]c34)cc2Cl)c1", "propertyLabel": "%Inh", "reported": 26}
{"molecule": "c1ccc(-c2ccc3c(-c4ccnc(Nc5ccc6c(c5)OCCO6)n4)cnn3n2)cc1 [GW818941]", "propertyLabel": "%Inh", "reported": 0}
{"molecule": "Cn1cc(-c2ccc3c(c2)CCN3C(=O)Cc2cccc(C(F)(F)F)c2)c2c(N)ncnc21 [GSK2606414]", "propertyLabel": "%Inh", "reported": 1}
{"molecule": "COc1ccc(-c2oc3ncnc(N)c3c2-c2ccc(OC)cc2)cc1 [SB-589132]", "propertyLabel": "%Inh", "reported": 5}
{"molecule": "CS(=O)(=O)CCNCc1ccc(-c2ccc3ncnc(Nc4ccc(OCc5ccccc5)c(Cl)c4)c3c2)o1.Cl [GW574783]", "propertyLabel": "%Inh", "reported": 0}
{"molecule": "Cl.Cn1ccc(-c2cccc(Nc3ccnc4cc(-c5nccs5)ccc34)c2)n1 [GW525701]", "propertyLabel": "%Inh", "reported": 0}
{"molecule": "COc1ccc(NC(=O)Nc2ccc(C)c(-c3ccc(C(=O)Nc4ccncc4)cc3)c2)cc1 [GSK1398475]", "propertyLabel": "%Inh", "reported": 0}
{"molecule": "COc1ccc(NC(=O)c2ccc(-c3cc(-c4nnc(C)o4)ccc3C)cc2)cc1 [GW595885]", "propertyLabel": "%Inh", "reported": 2}
{"molecule": "Clc1ccc(-c2cc(-c3c[nH]nc3-c3ccccn3)ccn2)cc1 [GW681251]", "propertyLabel": "%Inh", "reported": 0}
{"molecule": "COC(=O)c1c(-c2ccccc2)c2cc(Cl)ccc2c(=O)n1Cc1ccc(S(C)(=O)=O)cc1", "propertyLabel": "%Inh", "reported": 0}
{"molecule": "O=C(Nc1ccccc1F)NC1CCN(c2ccnc(Nc3ccc(F)cc3)n2)C1 (centres unmarked) [GSK1379722]", "propertyLabel": "%Inh", "reported": 0}
{"molecule": "Cc1ccc(NC(=O)c2cccc(C#N)c2)cc1-c1ccc(C(=O)Nc2ccncc2)cc1 [GSK1398463]", "propertyLabel": "%Inh", "reported": 10}
{"molecule": "COc1cc2c(Nc3cccc(NC(=O)c4ccccc4)c3)ncnc2cc1OCCCN1CCOCC1 [GSK223810]", "propertyLabel": "%Inh", "reported": 13}
{"molecule": "Cc1cc(N2CCC(NS(=O)(=O)c3ccc(F)cc3)CC2)nc(Nc2cccc(C#N)c2)n1.O=C(O)C(F)(F)F [GSK1653537]", "propertyLabel": "%Inh", "reported": 0}
{"molecule": "Clc1cc(Nc2ncnc3cc[nH]c23)ccc1OCc1ccccn1", "propertyLabel": "%Inh", "reported": 24}
{"molecule": "COC(=O)c1cccc(NC(=O)NCCNc2ccnc(Nc3ccc(F)cc3)n2)c1 [GSK1379883]", "propertyLabel": "%Inh", "reported": 0}

====

- System: WEE2
- experimentalParameters: concentration: 1 μM, replicates: in singlicate; n = 1
propertyLabel: %Inh

{"compound": "O=c1cc(N2CCOCC2)nc2n(Cc3cccc(Cl)c3)ccn12", "reported": "13%"}
{"compound": "COc1ccc(Nc2nccc(N3CCC(NC(=O)c4cccc(NC(C)=O)c4)C3)n2)cc1 (centres unmarked)", "reported": "7%"}
{"compound": "CN1CCC(n2cnc(-c3ccc(F)cc3)c2-c2ccnc(NC3CCNCC3)n2)CC1", "reported": "30%"}
{"compound": "FC(F)(F)c1ccc(-c2nn3ncccc3c2-c2ccnc(Nc3cccc(C(F)(F)F)c3)n2)cc1", "reported": "11%"}
{"compound": "Cl.Cn1ccc(-c2cccc(Nc3ccnc4cc(-c5nccs5)ccc34)c2)n1", "reported": "0%"}
{"compound": "Cc1ccc(O)cc1Nc1cc(C(F)(F)F)nc2ccc(-c3ccncc3)cc12", "reported": "30%"}
{"compound": "CCn1c(-c2ccncc2)nc2cnccc21", "reported": "1%"}
{"compound": "CCc1nc(-c2cccc(N(C)S(=O)(=O)c3ccccc3)c2)c(-c2ccnc(Nc3ccc(N4CCN(C(C)=O)CC4)nc3)n2)s1", "reported": "0%"}
